src = paper PMC11249646

assay-system: CIB1 and αIIb interaction (CIB1-GST : F-αIIb peptide) (Homo sapiens, UniProt Q99828)
Construct: made in house; host or cells: BL-21 plus RIL cells (E. coli)
protocol-notes: FP assay, 1536-well qHTS format (primary and confirmatory screen)
Type: binding
condition-context: qHTS primary screen of LOPAC/NPACT libraries; read-out: IC50
measurement-kind: pIC50
Please treat pIC50 as minus the base-10 logarithm of the molar concentration.

Reference set, count: 2
CCCCc1ncc(/C=C(\Cc2cccs2)C(=O)O)n1Cc1ccc(C(=O)O)cc1.CS(=O)(=O)O : 4.50
O=C1c2c(O)cc(O)cc2OC(c2ccc(O)c(O)c2)C1O (stereo not drawn) : 5.00

input: Bench note: what pIC50 did "O=c1oc(Cl)c(Cl)c2ccccc12" show?
output: 4.50

input: Bench note: what pIC50 did "O=C(Nc1cccc(C(=O)Nc2ccc(S(=O)(=O)O)c3cc(S(=O)(=O)O)cc(S(=O)(=O)O)c23)c1)Nc1cccc(C(=O)Nc2ccc(S(=O)(=O)O)c3cc(S(=O)(=O)O)cc(S(=O)(=O)O)c23)c1" show?
output: 6.50

input: Bench note: what pIC50 did "COc1cc2c(cc1OC)-c1[nH]nc(Nc3cccc(F)c3)c1C2" show?
output: 4.20

input: Bench note: what pIC50 did "C=CC(=O)Nc1cccc(Nc2nc(Nc3ccc(OCCOC)cc3)ncc2F)c1" show?
output: 5.00

input: Bench note: what pIC50 did "CC(C)c1cc(F)cc2c1C[C@](CCN(C)CCCc1nc3ccccc3[nH]1)(OC(=O)C1CC1)CC2" show?
output: 4.25

input: Bench note: what pIC50 did "CCN1CCc2nc(N)oc2CC1.Cl" show?
output: 4.40

input: Bench note: what pIC50 did "O=C(NCc1ccc(Oc2ccccc2)cc1)c1nc(-c2cc(Br)c(O)c(Br)c2)no1" show?
output: 4.75

* * *

assay-system: GST-CIB1 : F-αIIb peptide (Homo sapiens, UniProt Q99828)
Construct: made in house; host or cells: BL-21 plus RIL cells (E. coli)
protocol-notes: FP assay in the presence of glutathione (GSH), thiol reactivity
Type: binding
condition-context: GSH (-) Assay IC50, FP assay without glutathione (GSH -)
measurement-kind: IC50 (µM)
The reply should contain only the number, in µM.

input: Bench note: what IC50 did S=C(SSC(=S)N1CCCCC1)N1CCCCC1 [NCGC00181776-01] show?
output: 4.6

* * *

assay-system: CIB1 and αIIb interaction (CIB1-GST : F-αIIb peptide) (Homo sapiens, UniProt Q99828)
Construct: made in house; host or cells: BL-21 plus RIL cells (E. coli)
Sequence (Q99828 1-191): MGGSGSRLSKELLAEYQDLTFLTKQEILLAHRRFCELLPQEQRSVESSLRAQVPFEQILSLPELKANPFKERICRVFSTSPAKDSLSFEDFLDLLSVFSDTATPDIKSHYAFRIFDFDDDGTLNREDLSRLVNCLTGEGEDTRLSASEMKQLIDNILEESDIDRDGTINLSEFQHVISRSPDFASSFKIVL
protocol-notes: FP assay, 1536-well qHTS format (primary and confirmatory screen)
Assay type: binding
condition-context: qHTS FP screen hits, Table S2; read-out: IC50
measurement-kind: pIC50
Please treat pIC50 as minus the base-10 logarithm of the molar concentration.

Reference set, count: 7
O=C1c2cccc(O)c2C(=O)c2c(O)cc(CO)cc21 : 5.02
NC(=O)C1CCN(c2ncc(Br)s2)CC1 : 4.40
C=Cc1c(C)c2cc3[nH]c(cc4nc(cc5nc(cc1[nH]2)C(C)=C5CCC(=O)O)C(CCC(=O)O)=C4C)c(C)c3C=C : 4.37
Nc1nc2c(s1)C(c1ccccc1C(F)(F)F)CC(=O)N2.O=C(O)C(F)(F)F (centres unmarked) : 4.35
CCN(CC)CCN(Cc1ccc(-c2ccc(C(F)(F)F)cc2)cc1)C(=O)Cn1c(SCc2ccc(F)cc2)nc(=O)c2c1CCC2 : 4.25
CC1(C)C=CN2C(=O)C3=CCCN3C(=O)[C@@H]2C[C@@]12Nc1ccccc1C2=O : 4.35
CN(C(=O)CN(CCO)CC(=O)N(C)C(C)(C)Cc1ccccc1)C(C)(C)Cc1ccccc1 : 4.55

Query molecule follows.
input: Bench note: what pIC50 did "C=CCNc1oc(-c2ccc(Cl)cc2)nc1C#N.O=C(O)C(F)(F)F" show?
output: 4.30
